Values were extracted from the METLIN SMRT retention time set (Domingo-Almenara et al. 2019).

assay: gradient 5% acetonitrile 3 min, to 50% in 2 min, to 85% in 15 min, held 3 min, 100 µL/min; conditions: column: Zorbax Extend-C18 2.1 x 50 mm; eluents: water / acetonitrile, 0.1% formic acid
Reported RP-LC retention time by item:
The figure you give is taken to be in s; do not add the unit.

CCc1ccc(NS(=O)(=O)c2cc3[nH]c(=O)[nH]c3cc2C)cc1 = 719
Cc1ccc(C(=O)NC2CCN(c3nnc4ccccn34)CC2)cc1N1CCCC1=O = 596
CCCOc1cc(S(=O)(=O)NCCCn2ccnc2)ccc1Cl = 596
CN1c2ccccc2C(=O)NC12CCN(C(=O)c1cccc(Cl)c1)CC2 = 756
Cc1c(Cl)cccc1NC(=O)CCc1nc(CSc2nnc(-c3ccccc3)o2)no1 = 949
Cc1ccc(S(=O)(=O)N2CCN(CCc3cn(C)c4ncccc34)CC2)cc1C = 656
Nc1nc(-c2ccc(F)cc2)nn1C(=O)c1ccc(F)cc1 = 969
CC1CCN(S(=O)(=O)N2CCC(C(=O)N3CCC(Cc4nncn4C(C)C)CC3)CC2)CC1 = 720

In: Provide one value: measured RP-LC retention time of O=C1CC(c2nc(-c3ccccc3F)no2)CN1c1ccc2c(c1)OCCO2 (stereo not drawn)
Out: 860

In: Provide one value: measured RP-LC retention time of "CCOC(=O)c1noc2nc(C)nc(N3CCN(c4ccc(F)cc4)CC3)c12"
Out: 1070

In: Provide one value: measured RP-LC retention time of "COc1ccc(OC)c2[nH]c(C(=O)N[C@H](C(=O)O)c3ccccc3)cc12"
Out: 891

In: Provide one value: measured RP-LC retention time of COC(=O)c1cc(S(=O)(=O)N2CCCC2C(=O)Nc2ccc(C)cc2Br)cn1C (stereo not drawn)
Out: 1000

---

assay: gradient 5% acetonitrile 3 min, to 50% in 2 min, to 85% in 15 min, held 3 min, 100 µL/min; conditions: column: Zorbax Extend-C18 2.1 x 50 mm; eluents: water / acetonitrile, 0.1% formic acid
Measurement name: RP-LC retention time (s)
The figure you give is taken to be in s; do not add the unit.

Please review the entries below; each comes with its answer.
COc1ccc(CNC(=O)N2CCN(Cc3nc4ccc(Cl)cc4o3)CC2)cc1 = 711
CCNC(=O)c1n[nH]c2c1CN(C(=O)c1cc(F)ccc1F)CC2 = 648
Cc1nc2c(NC(=O)COc3ccccc3C)cccn2n1 = 916
CCc1nc(-c2csc(S(=O)(=O)N3CCCC(C(=O)Nc4cc(F)ccc4F)C3)c2)no1 (stereo not given) = 1090
O=C(Cc1csc(-c2c(Cl)cccc2Cl)n1)NCCc1c[nH]c2ccccc12 = 925

// next item, RP-LC retention time requested
In: Provide one value: measured RP-LC retention time of "CN(C)c1ccc(C(=O)Nc2cnc(N3CCCCC3)nc2)cc1"
Out: 882

---

experiment: gradient 5% acetonitrile 3 min, to 50% in 2 min, to 85% in 15 min, held 3 min, 100 µL/min; settings: column: Zorbax Extend-C18 2.1 x 50 mm; eluents: water / acetonitrile, 0.1% formic acid
Reported RP-LC retention time by item:
Remember to follow the number with its unit.

COc1cccc(NS(=O)(=O)c2cc3c(s2)CCN(C(=O)C2CCC2)C3)c1 = 851 s
O=C(CCc1ccc2nc(-c3ccccc3)[nH]c2c1)N1CCC(N2CCCCC2)CC1 = 559 s

In: Provide one value: measured RP-LC retention time of O=C1Nc2cc(C(=O)N3CCC(N4CCCCC4)CC3)ccc2N2CCCCC12 (stereo not given)
Out: 581 s

In: Provide one value: measured RP-LC retention time of "Cc1nc(Nc2ccc(Br)cn2)sc1C(=O)NC1CC1"
Out: 735 s

In: Provide one value: measured RP-LC retention time of CN(CC1CCOC1)C(=O)c1cc(F)cc(F)c1 (stereo not given)
Out: 690 s

In: Provide one value: measured RP-LC retention time of "Clc1ccc(-c2csc(N3CCOCC3)n2)c(Cl)c1"
Out: 1260 s

In: Provide one value: measured RP-LC retention time of "CC(C)(C)c1ccc(/C=C/C(=O)Nc2ccc3c(c2)OCCO3)cc1"
Out: 1190 s

---

experiment: gradient 5% acetonitrile 3 min, to 50% in 2 min, to 85% in 15 min, held 3 min, 100 µL/min; conditions: column: Zorbax Extend-C18 2.1 x 50 mm; eluents: water / acetonitrile, 0.1% formic acid
Where RP-LC retention time equals or exceeds 700 s, the correct label is y; where it does not, the label is n.

Consider the worked cases shown below.
COC(=O)COC(=O)c1cn(-c2cccc(OC)c2)c(=O)c2ccccc12 = y
CCCNC(=O)C(=O)NCC(c1ccc2c(c1)OCO2)N1CCOCC1 (stereo not given) = n

In: RP-LC retention time >= 700 s for "COc1cc(-c2noc(CCn3nc(-c4ccc(F)cc4)ccc3=O)n2)cc(OC)c1OC" ?
Out: y

In: RP-LC retention time >= 700 s for COc1ccc(-c2nc3cnccn3c2Nc2ccc(C(=O)NCC3CCCO3)cc2)cc1 (stereo not given) ?
Out: n

In: RP-LC retention time >= 700 s for "O=C(NCc1ccc(-c2noc(Cc3cccc(F)c3)n2)s1)C1CC1" ?
Out: y

In: RP-LC retention time >= 700 s for "Cn1nc(-c2nc(C3CC3)no2)c2c1CCN(C(=O)Nc1ccc(F)cc1)C2" ?
Out: y

---

assay: gradient 5% acetonitrile 3 min, to 50% in 2 min, to 85% in 15 min, held 3 min, 100 µL/min; conditions: column: Zorbax Extend-C18 2.1 x 50 mm; eluents: water / acetonitrile, 0.1% formic acid
Reported RP-LC retention time by item:
The figure you give is taken to be in s; do not add the unit.

COc1ccc(NC(=O)CN2CCc3c(c(=O)c4cc(C)ccc4n3C)C2)cc1Cl = 638
Cc1ccccc1CC(=O)N1CCCC(COc2ccc(C(=O)N3CCOCC3)cc2)C1 (stereo not given) = 811
O=S(=O)(Cc1ccccc1)N1CCC(n2c(-c3ccoc3)nc3cccnc32)C1 (stereo not given) = 787
Cc1ccc(OCC(=O)Nc2cc3c(cc2C)n(C)c(=O)n3C)cc1 = 980
CN(C)CCNCc1ccc(-c2cccc(Cl)c2)o1 = 570

In: Provide one value: measured RP-LC retention time of "CCCCNC(=O)Cn1cccc(-c2nc(-c3ccc(F)cc3)no2)c1=O"
Out: 790

In: Provide one value: measured RP-LC retention time of "CCC(=O)Nc1ccc(CCc2nc3ccc(C(=O)NC4CCCC4)cc3[nH]2)cc1"
Out: 625

In: Provide one value: measured RP-LC retention time of "COc1ccccc1NC(=O)NCCC1CCN(S(=O)(=O)c2ccccc2)CC1"
Out: 910

In: Provide one value: measured RP-LC retention time of "Clc1ccc(OCc2nc3c4ccccc4ncn3n2)cc1"
Out: 951

In: Provide one value: measured RP-LC retention time of CC(=O)N1CCN(c2nc3c(s2)CC(C(=O)Nc2cccc(Cl)c2)CC3)CC1 (stereo not given)
Out: 628

---

assay: gradient 5% acetonitrile 3 min, to 50% in 2 min, to 85% in 15 min, held 3 min, 100 µL/min; details: column: Zorbax Extend-C18 2.1 x 50 mm; eluents: water / acetonitrile, 0.1% formic acid
Measurement name: RP-LC retention time (s)
The figure you give is taken to be in s; do not add the unit.

Please review the entries below; each comes with its answer.
O=C(NCCc1ccccc1)N(C1CCOCC1)C1CCN(Cc2cccnc2)CC1 = 604
CN1C(=O)c2cccnc2Sc2cc(NC(=O)c3ccccc3Cl)ccc21 = 781
O=S(=O)(c1cc(-c2nnc(C3CCCC3)o2)co1)N1CCCCCC1 = 1050
CCN1C(=O)C(C)(C(=O)Nc2cc(OC)cc(OC)c2)Oc2cccnc21 (centres undefined) = 868

In: Provide one value: measured RP-LC retention time of "Cc1noc(C)c1CN1CCN(C(=O)c2nc3ccccc3s2)CC1"
Out: 574

In: Provide one value: measured RP-LC retention time of "CN(c1nccn2c(=O)n(CC(=O)Nc3ccc(F)c(Cl)c3)nc12)C1CCCCC1"
Out: 819

In: Provide one value: measured RP-LC retention time of Cc1ccc(CCNC(=O)c2ccc3c(c2)NC(=O)C2CCCCN32)cc1 (centres undefined)
Out: 862

In: Provide one value: measured RP-LC retention time of "O=C(NCCc1ccco1)c1ccc2cnn(Cc3ccc(F)cc3)c2c1"
Out: 873

In: Provide one value: measured RP-LC retention time of "O=C(NCc1ccc(F)cc1F)c1csc(C(=O)N2CCCC2)n1"
Out: 795

In: Provide one value: measured RP-LC retention time of "Cc1ccccc1-c1ccc(N2CCC(C(=O)Nc3ccc4c(c3)OCCO4)CC2)nn1"
Out: 634

In: Provide one value: measured RP-LC retention time of "Cc1ccc(NC(=O)N2CCC(CC(=O)N3CCCCC3)CC2)cc1Cl"
Out: 861

In: Provide one value: measured RP-LC retention time of "CCCc1cc(N2CCN(C(=O)c3ccsc3)CC2)nc2nnc(C)n12"
Out: 611

In: Provide one value: measured RP-LC retention time of "Nc1nc(SCCc2ccccc2)c2[nH]cnc2n1"
Out: 675

In: Provide one value: measured RP-LC retention time of "Cc1ccccc1Nc1c(-c2cccc(Br)c2)nc2cccc(C)n12"
Out: 833

In: Provide one value: measured RP-LC retention time of "COc1ccc(-c2nc3ncccn3c2Nc2ccc(OC)c(OC)c2)cc1"
Out: 640

In: Provide one value: measured RP-LC retention time of Cc1ccc2[nH]c3c(c2c1)CCNC31C(=O)Nc2ccccc21 (centres undefined)
Out: 643

In: Provide one value: measured RP-LC retention time of "Cc1cc2nn(CC(=O)Nc3cc(F)ccc3C)c(=O)n2c(-c2ccccc2)n1"
Out: 627

In: Provide one value: measured RP-LC retention time of COc1ccc(C2c3c(n(C)c4ccccc34)C(=O)N2CC(=O)N2CCN(c3ccccn3)CC2)cc1 (centres undefined)
Out: 710

In: Provide one value: measured RP-LC retention time of "CCOC(=O)c1cnc2nc(-c3ccccc3)nn2c1C"
Out: 917

In: Provide one value: measured RP-LC retention time of "O=C(CCn1cnc2cc(-c3noc(-c4ccc(Cl)cc4)n3)ccc21)N1CCOCC1"
Out: 754

In: Provide one value: measured RP-LC retention time of "CCc1ccccc1S(=O)(=O)Cc1ccc(C(=O)N2CCN(c3ccccn3)CC2)o1"
Out: 637

In: Provide one value: measured RP-LC retention time of "Cc1cccc(S(=O)(=O)N2CC3CN(C(=O)c4cnccn4)CC(C2)O3)c1"
Out: 688

In: Provide one value: measured RP-LC retention time of "O=C(N[C@@H](COc1ccc2[nH]c(=O)[nH]c2c1)c1ccccc1)c1cccn(Cc2ccc(F)c(F)c2)c1=O"
Out: 893

In: Provide one value: measured RP-LC retention time of Cc1ccc(C)c(NC(=O)C2CCCN(c3nc4c(s3)c(C)nn4-c3cccc(F)c3)C2)c1 (centres undefined)
Out: 1280
